- assaySystem: Human Cot (Homo sapiens (Human), UniProt P41279)
- Sequence (P41279 30-397): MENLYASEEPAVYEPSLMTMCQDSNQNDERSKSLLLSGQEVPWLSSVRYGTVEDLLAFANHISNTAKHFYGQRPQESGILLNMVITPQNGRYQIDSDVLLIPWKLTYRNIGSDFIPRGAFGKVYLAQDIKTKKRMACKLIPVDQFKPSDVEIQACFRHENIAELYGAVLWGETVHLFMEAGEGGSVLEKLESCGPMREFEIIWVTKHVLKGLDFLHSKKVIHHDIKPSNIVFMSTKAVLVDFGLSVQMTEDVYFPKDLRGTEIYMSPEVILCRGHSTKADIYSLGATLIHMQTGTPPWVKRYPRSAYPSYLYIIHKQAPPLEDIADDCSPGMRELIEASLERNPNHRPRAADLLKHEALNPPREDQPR
- assayText: High Throughput Cot Biochemical Assay
- conditionLabel: IC50 HTRF, Cot HTRF (TR-FRET) biochemical assay
measure: IC50 (nM)

A: Cc1ncsc1[C@H](Nc1cc(Cl)c2ncc(C#N)c(N[C@H](C)c3ccccc3)c2c1)c1cn(C(C)C)nn1 [Example 239]
B: Cn1ccc2c([C@H](Nc3cc(Cl)c4ncc(C#N)c(NCC(C)(C)C)c4c3)c3cn(C45CC(C4)C5)nn3)cccc2c1=O [Example 713]
C: Cn1cnc2c([C@H](Nc3cc(Cl)c4ncc(C#N)c(NCC(C)(C)C)c4c3)c3cn(C45CC(C4)C5)nn3)cccc2c1=O [Example 728]
(Q) sort_by: IC50; order: ascending; scope: items listed above Give the order by naming the labels one after another as requested.
(A) B, C, A
(B: 2 nM, C: 7 nM, A: 16 nM)
